- TGT: T1, K316 PDZ-GST fusion protein (Homo sapiens (Human), UniProt Q14CM0 72-159)
- T1 construct: Order of GST and PDZ part and limits not seen in the excerpts
- EXPERIMENT_SUMMARY: A/G assays
Ends that are not written are not given here. * marks the point of attachment. Biotin = O=C1N[C@H]2[C@H](CS[C@H]2CCCCC(=O)*)N1
MEASURED_ENDPOINT: binding result

Known binding result results, listed for orientation:
>>> result("Biotin-ENLAPVTTFGKTNGYIA (also called CD148 (DEP-1)) [CD148 C-terminal peptide AA19L, biotinylated]")
"no binding"
>>> result("Biotin-KKGTYLTDETHREVKFTSL [CD46 (Form 1) C-terminal peptide AA10L, biotinylated]")
"no binding"
>>> result("Biotin-VTSPNKHLGLVTPHKTELV [CD83 C-terminal peptide AA47L, biotinylated]")
"no binding"
>>> result("Biotin-SSKSKSSEESQTFFGLYKL (not fully specified, also called FasLigand; Fas ligand) [FasL C-terminal peptide AA23L-M, biotinylated]")
"no binding"
>>> result("Biotin-LNFPLLQGIRVHGMEALGSF (Only the last four residues are seen in the excerpts) [CD114 (G-CSFR) C-terminal peptide AA27L]")
"no binding"
>>> result("Biotin-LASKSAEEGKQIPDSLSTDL [DOCK2 C-terminal peptide AA40L, biotinylated]")
"no binding"

Challenge: I'd like to know its binding result. The binder in question is Biotin-TSGTGHNQTRALRASESGI (also called CD97 (CD55L)) [CD97 C-terminal peptide AA14L, biotinylated]
Response given: no binding

Challenge: Biotin-KDSRPSFVGSSSGHTSTTL (also called CDW128E (IL8RB)) [CDW128B (IL8RB) C-terminal peptide AA29.2L, biotinylated] , same question.
Response given: no binding

Challenge: Biotin-STNHSIGSTQSTPCSTSSMA (also called CD105 (endoglin)) [CD105 C-terminal peptide AA16L, biotinylated] , same question.
Response given: no binding

Challenge: Biotin-QFMTADETRNLQNVDMKIGV (also called CD44 (long form)) [CD44 C-terminal peptide AA9L, biotinylated] , same question.
Response given: no binding

Challenge: Biotin-SMQPDNSSDSDYDLHGAQRL (Only the last four residues are seen in the excerpts) [CD5 C-terminal peptide AA49L] , same question.
Response given: no binding

Challenge: Biotin-ARHRVTSYTSSSVNVSSNL [CDW128A (IL8RA) C-terminal peptide AA29.1L, biotinylated] , same question.
Response given: no binding

Challenge: Biotin-ARKANMKGSYSLVEAQKSKV (also called CD106) [VCAM1 C-terminal peptide AA17L, biotinylated] , same question.
Response given: no binding

Challenge: Biotin-PKQANGGAYQKPTKQEEFYA (also called CD138 (syndecan-1); CD138 (syndecan)) [CD138 C-terminal peptide AA18L, biotinylated] , same question.
Response given: no binding

Challenge: Biotin-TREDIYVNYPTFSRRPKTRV [DNAM-1 C-terminal peptide AA22L, biotinylated] , same question.
Response given: no binding

All figures here come from patent US20050037969A1.
